method summary: gradient 5% acetonitrile 3 min, to 50% in 2 min, to 85% in 15 min, held 3 min, 100 µL/min
assay setup: column: Zorbax Extend-C18 2.1 x 50 mm; eluents: water / acetonitrile, 0.1% formic acid
value type: RP-LC retention time (s)

>  <molecule>
NC(=O)C1CCN(C(=O)c2snc(-c3ccccn3)c2N)CC1

>  <result number>
645

$$$$
>  <molecule>
CCc1cc(C(=O)N2CCN(C(C)C)CC2)nc2cc(-c3ccccn3)nn12

>  <result number>
650

$$$$
>  <molecule>
CSc1ccc(-c2nc3ccc(Cl)cn3c2Nc2ccc3c(c2)OCCO3)cc1

>  <result number>
819

$$$$
>  <molecule>
O=C(c1ccncc1)N1CCCC(c2nc(-c3ccc(F)cc3)n[nH]2)C1 (stereo not given)

>  <result number>
614

$$$$
>  <molecule>
COc1ccc(C2CC(=O)N(c3ccc(C)cc3)C(=O)C2)cc1OC

>  <result number>
831

$$$$
>  <molecule>
CC(C)N(CCCNC(=O)c1cc2sccc2n1C)Cc1ccccc1

>  <result number>
682

$$$$
>  <molecule>
O=C(NCC1CCCO1)c1ccc(Nc2c(-c3ccccc3)nc3cnccn23)cc1 (stereo not given)

>  <result number>
1140

$$$$
>  <molecule>
CCOC(=O)c1c(C)oc2nc(C)nc(Nc3ccc(OCC)cc3)c12

>  <result number>
1360

$$$$
>  <molecule>
Cc1ccc(-c2nocc2CCC(=O)O)cc1

>  <result number>
748

$$$$
>  <molecule>
CN(Cc1ccco1)C(=O)c1c2c(nc3ccccc13)C(=O)N(C1CCCCC1)C2

>  <result number>
844

$$$$
>  <molecule>
Cc1cccc(N2CCN(c3cc(C)nc4c5c(C)cc(C)nc5nn34)CC2)n1

>  <result number>
561

$$$$
>  <molecule>
CC(C)CCNC(=O)C1CCCN(c2cc(=O)n(C)c(=O)n2C)C1 (stereo not given)

>  <result number>
677

$$$$
>  <molecule>
Cc1ccc(C(=O)N2CCC(N3C(=O)C(O)C34CCCCC4)CC2)s1 (stereo not given)

>  <result number>
678

$$$$
>  <molecule>
CCn1cc(-c2ccc(Cl)cc2)cc1C(=O)NCCN1CCOCC1

>  <result number>
705

$$$$
>  <molecule>
Cn1nc(-c2nnc(-c3ccc(F)cc3)o2)c2c1CCN(S(=O)(=O)c1cccc3nsnc13)C2

>  <result number>
910

$$$$
>  <molecule>
O=C(COc1ccccc1F)Nc1ccc2c(c1)CCC(=O)N2Cc1ccccc1

>  <result number>
860

$$$$
>  <molecule>
O=C(Nc1ccc(Cl)cc1)C1CCCN(S(=O)(=O)c2c[nH]c(C(=O)N3CCCC3)c2)C1 (stereo not given)

>  <result number>
862

$$$$
>  <molecule>
Cc1ccc2c(Nc3cccc(C(C)C)c3)c(C(=O)N3CCCCC3C)cnc2n1 (stereo not given)

>  <result number>
720

$$$$
>  <molecule>
O=C(NCc1cc(F)cc(F)c1)c1cn(-c2ccc(NC(=O)C3CC3)cn2)cn1

>  <result number>
763

$$$$
>  <molecule>
CC(C)N1CC2(CCN(S(=O)(=O)c3ccccc3)CC2)C1c1ccccc1 (stereo not given)

>  <result number>
690

$$$$
